Source of measurements: the kinase profiling compilation of Christmann-Franck et al. (2016)

biological target: MAP2K4 (human) (UniProt P45985); assay: ELISA; details: compound 0.02 µM
Sequence (P45985 whole entry, looked up): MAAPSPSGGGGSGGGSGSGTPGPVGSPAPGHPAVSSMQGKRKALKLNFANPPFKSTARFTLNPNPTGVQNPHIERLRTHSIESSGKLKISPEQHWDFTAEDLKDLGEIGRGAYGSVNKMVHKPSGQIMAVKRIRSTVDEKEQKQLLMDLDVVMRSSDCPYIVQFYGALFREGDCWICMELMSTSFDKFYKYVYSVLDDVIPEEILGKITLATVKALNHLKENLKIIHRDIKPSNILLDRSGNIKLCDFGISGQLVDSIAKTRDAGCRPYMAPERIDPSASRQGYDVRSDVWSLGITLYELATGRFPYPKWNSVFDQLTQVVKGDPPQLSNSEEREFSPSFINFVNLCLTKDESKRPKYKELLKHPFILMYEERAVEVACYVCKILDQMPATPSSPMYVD
Exercise: state measured inhibition for each of the molecules provided.
Numbers only, in %.

COc1cc2c(Oc3ccc4[nH]c(C)cc4c3F)ncnc2cc1OCCCN1CCCC1 0.9
Cc1ccc(Nc2nccc(N(C)c3ccc4c(C)n(C)nc4c3)n2)cc1S(N)(=O)=O 8.7
CNC(=O)c1ccccc1Sc1ccc2c(/C=C/c3ccccn3)n[nH]c2c1 -5.7

Proceed to the following item.
-- ask Need inhibition, item CNC(=O)c1cc(Oc2ccc(NC(=O)Nc3ccc(Cl)c(C(F)(F)F)c3)cc2)ccn1
-- reply 1.7

====

Exercise: state measured inhibition for each of the compounds provided.
target: MAPK1 (human) (UniProt P28482); experiment: Caliper, Mobility shift assay off-chip; details: compound 0.02 µM
Sequence (P28482 whole entry, looked up): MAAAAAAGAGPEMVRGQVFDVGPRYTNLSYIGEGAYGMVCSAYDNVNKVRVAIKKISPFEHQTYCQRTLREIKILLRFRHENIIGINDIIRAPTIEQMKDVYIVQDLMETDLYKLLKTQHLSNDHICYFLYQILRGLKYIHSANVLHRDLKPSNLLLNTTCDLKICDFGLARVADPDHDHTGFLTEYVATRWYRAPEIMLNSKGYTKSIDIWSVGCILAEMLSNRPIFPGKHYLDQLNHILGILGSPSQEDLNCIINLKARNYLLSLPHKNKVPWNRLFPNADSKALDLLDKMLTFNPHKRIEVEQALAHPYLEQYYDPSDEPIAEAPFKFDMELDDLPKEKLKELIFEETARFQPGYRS
Answers are plain numbers, in %.

CNC(=O)c1ccccc1Sc1ccc2c(/C=C/c3ccccn3)n[nH]c2c1 -7.2

Answer for every listed entry: what is its inhibition? The entries follow.
1. COc1cc2c(Oc3ccc4[nH]c(C)cc4c3F)ncnc2cc1OCCCN1CCCC1
2. CNC(=O)c1cc(Oc2ccc(NC(=O)Nc3ccc(Cl)c(C(F)(F)F)c3)cc2)ccn1
3. Cc1ccc(Nc2nccc(N(C)c3ccc4c(C)n(C)nc4c3)n2)cc1S(N)(=O)=O

-- reply
-6.5
-3.9
-10.8

====

biological target: BLK (human); assay: Caliper, Mobility shift assay off-chip; conditions: compound 0.2 µM
measured-attribute: inhibition (%)
One number for each entry, in %.

COc1cc2c(Oc3ccc4[nH]c(C)cc4c3F)ncnc2cc1OCCCN1CCCC1 36.1

Answer for every listed entry: what is its inhibition? The entries follow.
1. Cc1ccc(Nc2nccc(N(C)c3ccc4c(C)n(C)nc4c3)n2)cc1S(N)(=O)=O
2. CCN(CC)CCNC(=O)c1c(C)[nH]c(/C=C2\C(=O)Nc3ccc(F)cc32)c1C
3. CNC(=O)c1cc(Oc2ccc(NC(=O)Nc3ccc(Cl)c(C(F)(F)F)c3)cc2)ccn1

-- reply
1. 22.7
2. 79.2
3. 6.4

====

target: IKBKB (human) (UniProt O14920); assay: Caliper, Mobility shift assay off-chip; settings: compound 0.2 µM
Sequence (O14920 whole entry, looked up): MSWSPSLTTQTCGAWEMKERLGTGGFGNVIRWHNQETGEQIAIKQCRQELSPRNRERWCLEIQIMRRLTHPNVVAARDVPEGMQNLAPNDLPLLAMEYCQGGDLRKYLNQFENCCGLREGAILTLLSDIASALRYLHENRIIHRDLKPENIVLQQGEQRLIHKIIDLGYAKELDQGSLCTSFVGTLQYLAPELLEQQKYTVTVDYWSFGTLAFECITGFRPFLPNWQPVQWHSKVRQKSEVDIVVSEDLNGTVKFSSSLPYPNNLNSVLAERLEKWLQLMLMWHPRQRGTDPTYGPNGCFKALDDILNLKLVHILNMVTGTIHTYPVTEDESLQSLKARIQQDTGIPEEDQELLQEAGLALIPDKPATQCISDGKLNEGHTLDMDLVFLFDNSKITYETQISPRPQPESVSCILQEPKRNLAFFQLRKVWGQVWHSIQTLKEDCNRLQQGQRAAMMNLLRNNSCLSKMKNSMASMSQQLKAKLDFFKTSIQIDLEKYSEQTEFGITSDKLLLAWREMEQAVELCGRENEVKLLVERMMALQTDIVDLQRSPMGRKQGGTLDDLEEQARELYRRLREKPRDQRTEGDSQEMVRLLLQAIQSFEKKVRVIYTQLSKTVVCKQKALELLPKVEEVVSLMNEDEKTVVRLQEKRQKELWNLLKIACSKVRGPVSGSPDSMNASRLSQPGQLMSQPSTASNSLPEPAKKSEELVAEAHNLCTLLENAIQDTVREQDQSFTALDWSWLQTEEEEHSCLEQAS
measured-attribute: inhibition (%)
Give bare numbers, in %.

Answered examples (3):
CNC(=O)c1cc(Oc2ccc(NC(=O)Nc3ccc(Cl)c(C(F)(F)F)c3)cc2)ccn1 1.4
Cc1ccc(Nc2nccc(N(C)c3ccc4c(C)n(C)nc4c3)n2)cc1S(N)(=O)=O -2.6
CCN(CC)CCNC(=O)c1c(C)[nH]c(/C=C2\C(=O)Nc3ccc(F)cc32)c1C -2.1

-- ask Need inhibition, item COc1cc2c(Oc3ccc4[nH]c(C)cc4c3F)ncnc2cc1OCCCN1CCCC1
-- reply -4.5

====

molecular target: NUAK2 (human); experiment: Caliper, Mobility shift assay off-chip; settings: compound 0.02 µM
Exercise: state measured inhibition for each of the compounds provided.
Answers are plain numbers, in %.

CNC(=O)c1cc(Oc2ccc(NC(=O)Nc3ccc(Cl)c(C(F)(F)F)c3)cc2)ccn1 -6
COc1cc2c(Oc3ccc4[nH]c(C)cc4c3F)ncnc2cc1OCCCN1CCCC1 8.9
CNC(=O)c1ccccc1Sc1ccc2c(/C=C/c3ccccn3)n[nH]c2c1 -0.7

-- ask Need inhibition, item Cc1ccc(Nc2nccc(N(C)c3ccc4c(C)n(C)nc4c3)n2)cc1S(N)(=O)=O
-- reply -16.5
